Biological target: human IDO1 (Homo sapiens)
Test: HEK Human IDO-1 inhibition assay (kynurenine readout, Ehrlich reagent, absorbance 490 nm)
Conditions: human IDO1/HEK293 cells, incubated 20 hours with compound; 500 nM reference standard = 100% inhibition
pIC50: −log10 of the molar value.
attributeMeasured: pIC50

compound: Cc1cc(NC(=O)Nc2cc(OCC(=O)NS(=O)(=O)C3CC3)ccc2N(CC(C)C)C2CCCCC2)no1
targetEntity: human IDO1 (Homo sapiens)
assayValue: ≤ 7.00
--
compound: CC(C)CN(c1ccc(OCC(=O)NS(=O)(=O)c2cccs2)cc1NC(=O)Nc1ccc(Cl)cc1F)C1CCCCC1
targetEntity: human IDO1 (Homo sapiens)
assayValue: > 8.30
--
compound: CC(C)CN(c1ccc(OCC(=O)O)cc1NC(=O)Nc1nnc(C(F)(F)F)s1)C1CCCCC1
targetEntity: human IDO1 (Homo sapiens)
assayValue: ≤ 7.00
--
compound: CC(C)CN(c1c(F)cc(OCC(=O)O)cc1NC(=O)Nc1cc(F)ccc1F)C1CCCCC1
targetEntity: human IDO1 (Homo sapiens)
assayValue: > 8.30
--
compound: CC(C)CN(c1ccc(OCC(=O)O)cc1NC(=O)Nc1ccc(Cl)cc1F)C1CCOCC1
targetEntity: human IDO1 (Homo sapiens)
assayValue: ≤ 7.00

Noted pIC50 for CCCN(Cc1ccccc1)c1ccc(OCC(=O)O)cc1NC(=O)Nc1ccc(OCC)cc1 , tested on human IDO1 (Homo sapiens): ≤ 7.00

Noted pIC50 for C=C(C)CN(c1ccc(OCC(=O)O)cc1NC(=O)Nc1ccc(Cl)cc1F)C1COC1 , tested on human IDO1 (Homo sapiens): ≤ 7.00

Noted pIC50 for CC(C)CN(c1ccc(OC(C)C(=O)O)cc1NC(=O)Nc1ccc(Cl)cc1F)C1CCCCC1 (single isomer, unassigned) [Example 61-2] , tested on human IDO1 (Homo sapiens): > 8.30

====

Biological target: human IDO1 (Homo sapiens)
Test: HEK Human IDO-1 inhibition assay (kynurenine readout, Ehrlich reagent, absorbance 490 nm)
Conditions: human IDO1/HEK293 cells, incubated 20 hours with compound; 500 nM reference standard = 100% inhibition
attributeMeasured: IC50

The cases that follow already have their IC50 on record.
molecule: Cc1ccc(CC(=O)Nc2cc(OC(C)C(=O)O)ccc2N(CC(C)C)C2CCCCC2)c(F)c1 (racemic)
IC50: < 100 nM

molecule: CC(C)CN(c1c(F)cc(OCC(=O)O)cc1NC(=O)Nc1ccc(Cl)cc1F)C1CCCCC1
IC50: < 5 nM

molecule: CC(C)CN(c1ccc(OCC(=O)O)c(F)c1NC(=O)Nc1ccc(Cl)cc1F)C1CCCCC1
IC50: ≥ 100 nM

Let us examine a further case.
Measured IC50 of CC(C)CN(c1ccc(OC(C)C(=O)O)cc1NC(=O)Nc1ccc(Cl)cc1F)C1CCOC1 (single isomer, unassigned) [Example 146-2] : < 100 nM

====

Biological target: human IDO1 (Homo sapiens, UniProt P14902)
Sequence (P14902 whole entry): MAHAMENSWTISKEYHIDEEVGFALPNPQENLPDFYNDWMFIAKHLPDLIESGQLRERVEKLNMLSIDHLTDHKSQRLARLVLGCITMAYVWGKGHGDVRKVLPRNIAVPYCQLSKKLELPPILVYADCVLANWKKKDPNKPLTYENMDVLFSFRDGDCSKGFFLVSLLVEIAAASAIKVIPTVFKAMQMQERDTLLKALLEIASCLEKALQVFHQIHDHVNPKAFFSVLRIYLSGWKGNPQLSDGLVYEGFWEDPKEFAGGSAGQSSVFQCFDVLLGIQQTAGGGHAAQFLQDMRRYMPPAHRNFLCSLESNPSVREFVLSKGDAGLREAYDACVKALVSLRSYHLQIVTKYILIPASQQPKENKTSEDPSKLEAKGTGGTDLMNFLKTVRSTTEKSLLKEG
Assay: HEK Human IDO-1 inhibition assay (kynurenine readout, Ehrlich reagent, absorbance 490 nm)
Settings: human IDO1/HEK293 cells, incubated 20 hours with compound; 500 nM reference standard = 100% inhibition
attributeMeasured: IC50

compound: COc1cnc(Nc2cc(OC(C)C(=O)O)ccc2N(CC(C)C)C2CCCCC2)nc1 (racemic)
attributeMeasured: IC50
assayValue: ≥ 100 nM
--
compound: CC(C)CN(c1ccc(OCC(=O)O)cc1NC(=O)Nc1cc(F)ccc1F)C1CCCCC1
attributeMeasured: IC50
assayValue: < 5 nM
--
compound: CCCC(Oc1ccc(N(CC(C)C)C2CCCCC2)c(NC(=O)Nc2ccc(Cl)cc2F)c1)C(=O)O (single isomer, unassigned) [Example 85-2]
attributeMeasured: IC50
assayValue: < 5 nM

Measured IC50 of CC(C)CN(Cc1ccc(Cl)cc1)c1ccc(OCC(=O)O)cc1NC(=O)Cc1ccc(Cl)cc1F : ≥ 100 nM
